Target: T1, PACAP38 (human, not fully specified)
T1 construct: The background says natural PACAP is alpha-amidated
T1 peptide: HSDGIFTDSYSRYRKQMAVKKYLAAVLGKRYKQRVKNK
Assay: SPR (Biacore), 37 C, antibody captured via anti-human Fc, peptide analyte
Quantity name: kon (M⁻¹ s⁻¹)
Numeric only. Scale: M⁻¹ s⁻¹

response.value for 605C (antibody, V domains shown) VH: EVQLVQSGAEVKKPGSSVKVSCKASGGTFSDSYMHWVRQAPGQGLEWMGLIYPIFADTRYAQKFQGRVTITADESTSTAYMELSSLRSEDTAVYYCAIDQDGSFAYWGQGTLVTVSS VL: DIVMTQSPDSLAVSLGERATINCKSSQSLLDADGKTYLNWLQQKPGQPPKRLIYWASTRESGVPDRFSGSGSGTDFTLTISSLQAEDVAVYYCWQGTWFDLTFGGGTKVEIK (field: kon) = 3.33e+07

Next:
For this binder ( 524C (antibody, V domains shown, LC S(27E), G29, L50, V51, K53T, L54R, D55E, H93W, P95D) VH: EVQLVQSGAEVKKPGSSVKVSCKASGGTFSDSYMHWVRQAPGQGLEWMGLIYPIFADQRYAQKFQGRVTITADESTSTAYMELSSLRSEDTAVYYCAIDQDASFAYWGQGTLVTVSS VL: DIVMTQSPDSLAVSLGERATINCKSSQSLLDSDGKTYLNWLQQKPGQPPKRLIYLVSTRESGVPDRFSGSGSGTDFTLTISSLQAEDVAVYYCWQGTWFDLTFGGGTKVEIK ), measured kon is 1.56e+07
